Test: Half life in BALB/c mouse at 50 mg/kg, po by LC-MS/MS analysis
Type: ADME, organism-based
Details: in vivo
reported-metric: half-life (h)
Use h as the unit, but write only the number.

Lab note: CCOC(=O)Nc1nc2ccc(-c3cc(Cc4n[nH]c(=O)c5ccccc45)ccc3F)cc2[nH]1 gave half-life of 3.28

----------
Answer each item with its documented pIC50.
Please express pIC50 as -log10 of the molar concentration.

Item COc1ccc(CN(C(=O)Cc2ccc(C(=O)Nc3ccccc3N)cc2)c2cc(OC)c(OC)c(OC)c2)cc1O was tested on Histone deacetylase 2 (Homo sapiens); the reported pIC50 is 5.52

Item COc1cc(/C=C/C(=O)c2ccc(NC(=O)c3ccccc3CN3C(=O)c4ccccc4C3=O)cc2)cc(OC)c1OC was tested on Histone deacetylase 2 (Homo sapiens); the reported pIC50 is 6.37

Item Cn1c(CCCCCCC(=O)NO)nc2ccc(N(CCCl)CCCl)cc21 was tested on Histone deacetylase 2 (Homo sapiens); the reported pIC50 is 8.00

----------
Biological target: Protein deacetylase HDAC6 (Homo sapiens, UniProt Q9UBN7)
Sequence (Q9UBN7 whole entry): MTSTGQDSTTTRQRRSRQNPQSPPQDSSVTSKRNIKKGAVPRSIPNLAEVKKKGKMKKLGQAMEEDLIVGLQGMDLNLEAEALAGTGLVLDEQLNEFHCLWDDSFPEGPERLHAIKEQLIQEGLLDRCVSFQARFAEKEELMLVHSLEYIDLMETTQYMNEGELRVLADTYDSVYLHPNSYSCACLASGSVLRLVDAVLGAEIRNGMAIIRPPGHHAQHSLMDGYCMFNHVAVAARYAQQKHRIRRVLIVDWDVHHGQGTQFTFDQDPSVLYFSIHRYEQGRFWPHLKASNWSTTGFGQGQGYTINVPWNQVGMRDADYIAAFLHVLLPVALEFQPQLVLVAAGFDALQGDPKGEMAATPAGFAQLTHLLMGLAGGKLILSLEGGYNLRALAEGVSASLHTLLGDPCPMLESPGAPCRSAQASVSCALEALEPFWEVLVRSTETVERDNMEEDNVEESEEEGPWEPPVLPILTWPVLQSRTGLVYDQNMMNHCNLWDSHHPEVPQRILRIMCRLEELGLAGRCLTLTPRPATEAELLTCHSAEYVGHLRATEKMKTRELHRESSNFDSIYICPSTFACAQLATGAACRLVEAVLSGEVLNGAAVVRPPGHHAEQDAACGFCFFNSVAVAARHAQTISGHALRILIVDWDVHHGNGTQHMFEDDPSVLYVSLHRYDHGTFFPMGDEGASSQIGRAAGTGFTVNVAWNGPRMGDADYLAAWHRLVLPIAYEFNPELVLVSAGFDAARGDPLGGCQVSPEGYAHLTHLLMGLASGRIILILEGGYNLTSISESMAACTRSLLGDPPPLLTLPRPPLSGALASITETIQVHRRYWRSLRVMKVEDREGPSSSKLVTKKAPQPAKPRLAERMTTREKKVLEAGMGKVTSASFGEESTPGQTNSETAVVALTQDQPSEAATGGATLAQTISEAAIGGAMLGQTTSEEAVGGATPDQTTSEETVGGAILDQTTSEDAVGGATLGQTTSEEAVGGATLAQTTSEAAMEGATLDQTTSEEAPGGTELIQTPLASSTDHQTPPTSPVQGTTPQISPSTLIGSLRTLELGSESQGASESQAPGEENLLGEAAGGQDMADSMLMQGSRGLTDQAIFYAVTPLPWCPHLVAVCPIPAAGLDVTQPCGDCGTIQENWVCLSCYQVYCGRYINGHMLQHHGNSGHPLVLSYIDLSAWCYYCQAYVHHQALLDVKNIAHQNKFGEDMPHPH
Experiment: Inhibition of HDAC6 (unknown origin)
reported-metric: pIC50
Please express pIC50 as -log10 of the molar concentration.

Lab note: O=C(Cc1ccc(/C=C/C(=O)c2ncc[nH]2)cc1)Nc1ccc(F)cc1 gave pIC50 of 5.70

Lab note: COc1ccc(CN(C(=O)Cc2ccc(C(=O)Nc3ccccc3N)cc2)c2cc(OC)c(OC)c(OC)c2)cc1O gave pIC50 of 4.11

Lab note: Cn1c(CCCCCCC(=O)NO)nc2ccc(N(CCCl)CCCl)cc21 gave pIC50 of 7.14

----------
For Histone deacetylase 3 (Homo sapiens, UniProt O15379), measured pIC50 is reported for the entries below.
Please express pIC50 as -log10 of the molar concentration.

Lab note: Cn1c(CCCCCCC(=O)NO)nc2ccc(N(CCCl)CCCl)cc21 gave pIC50 of 7.60

Lab note: O=C(Cc1ccc(/C=C/C(=O)c2ncc[nH]2)cc1)Nc1ccc(F)cc1 gave pIC50 of 5.74

----------
Answer each item with its documented pIC50.
Molecular target: Histone deacetylase 1 (Homo sapiens, UniProt Q13547)
Sequence (Q13547 whole entry, the tested form may be a part): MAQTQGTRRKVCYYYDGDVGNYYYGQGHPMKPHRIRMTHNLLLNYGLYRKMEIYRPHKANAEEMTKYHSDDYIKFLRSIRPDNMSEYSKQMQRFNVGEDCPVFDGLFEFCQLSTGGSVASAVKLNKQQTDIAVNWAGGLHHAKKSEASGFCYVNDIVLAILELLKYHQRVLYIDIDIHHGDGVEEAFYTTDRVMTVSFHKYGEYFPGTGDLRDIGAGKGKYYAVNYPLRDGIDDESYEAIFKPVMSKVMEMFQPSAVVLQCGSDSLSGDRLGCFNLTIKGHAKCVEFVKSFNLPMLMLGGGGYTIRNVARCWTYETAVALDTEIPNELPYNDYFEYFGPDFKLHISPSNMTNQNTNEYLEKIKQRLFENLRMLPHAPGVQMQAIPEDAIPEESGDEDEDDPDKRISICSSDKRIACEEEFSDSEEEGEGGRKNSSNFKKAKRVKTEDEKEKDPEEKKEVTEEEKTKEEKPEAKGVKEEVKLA
Assay: Inhibition of HDAC1 (unknown origin)
Please express pIC50 as -log10 of the molar concentration.

Item COc1cc(/C=C/C(=O)c2ccc(NC(=O)c3ccccc3CN3C(=O)c4ccccc4C3=O)cc2)cc(OC)c1OC was tested on Histone deacetylase 1 (Homo sapiens, UniProt Q13547); the reported pIC50 is 6.66

Item O=C(Cc1ccc(/C=C/C(=O)c2ncc[nH]2)cc1)Nc1ccc(F)cc1 was tested on Histone deacetylase 1 (Homo sapiens, UniProt Q13547); the reported pIC50 is 5.74

Item Cn1c(CCCCCCC(=O)NO)nc2ccc(N(CCCl)CCCl)cc21 was tested on Histone deacetylase 1 (Homo sapiens, UniProt Q13547); the reported pIC50 is 7.77

----------
Tested on: DU-145
Experiment: Antiproliferative activity against human DU-145 cells assessed as reduction in cell growth incubated for 72 hrs by SRB assay
Format: functional, cell-based
Conditions: DU-145, 72 h
reported-metric: pIC50
Please express pIC50 as -log10 of the molar concentration.

Lab note: CC[C@]1(O)C(=O)OCc2c1cc1n(c2=O)Cc2c-1nc1ccc(O)cc1c2/C=N/OCCCCCC(=O)NO gave pIC50 of 7.52

----------
Target: Histone deacetylase 5 (Homo sapiens)
Sequence (Q9UQL6 whole entry): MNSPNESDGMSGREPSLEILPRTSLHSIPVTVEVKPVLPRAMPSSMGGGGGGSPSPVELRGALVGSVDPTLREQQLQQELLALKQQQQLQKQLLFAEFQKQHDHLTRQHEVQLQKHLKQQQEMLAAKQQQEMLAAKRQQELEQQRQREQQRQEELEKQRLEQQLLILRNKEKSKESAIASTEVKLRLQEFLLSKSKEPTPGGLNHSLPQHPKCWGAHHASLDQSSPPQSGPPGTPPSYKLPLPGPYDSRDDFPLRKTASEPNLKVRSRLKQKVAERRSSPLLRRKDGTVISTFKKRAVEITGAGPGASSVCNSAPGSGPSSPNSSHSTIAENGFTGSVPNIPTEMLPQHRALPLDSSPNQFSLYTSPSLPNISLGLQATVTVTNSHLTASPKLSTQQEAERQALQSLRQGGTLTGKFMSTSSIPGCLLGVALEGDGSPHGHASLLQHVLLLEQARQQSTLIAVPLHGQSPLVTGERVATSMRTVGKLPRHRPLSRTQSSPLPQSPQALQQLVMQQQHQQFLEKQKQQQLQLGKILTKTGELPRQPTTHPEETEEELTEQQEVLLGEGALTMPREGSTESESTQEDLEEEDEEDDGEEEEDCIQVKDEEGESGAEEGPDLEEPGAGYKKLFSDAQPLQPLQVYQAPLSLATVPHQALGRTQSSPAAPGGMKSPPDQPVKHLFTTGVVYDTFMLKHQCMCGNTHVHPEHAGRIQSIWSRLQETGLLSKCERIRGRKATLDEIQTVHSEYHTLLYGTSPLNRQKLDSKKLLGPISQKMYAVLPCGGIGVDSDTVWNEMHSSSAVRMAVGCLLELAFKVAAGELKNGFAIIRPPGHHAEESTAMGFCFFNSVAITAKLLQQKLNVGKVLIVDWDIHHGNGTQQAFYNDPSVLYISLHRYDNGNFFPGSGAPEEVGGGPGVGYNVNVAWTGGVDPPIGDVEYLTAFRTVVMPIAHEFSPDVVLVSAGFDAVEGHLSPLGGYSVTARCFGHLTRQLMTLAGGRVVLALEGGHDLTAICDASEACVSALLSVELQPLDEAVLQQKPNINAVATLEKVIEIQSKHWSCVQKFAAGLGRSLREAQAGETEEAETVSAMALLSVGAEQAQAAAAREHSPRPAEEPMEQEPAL
reported-metric: IC50 (nM)
Use nM as the unit, but write only the number.

Item Cn1c(CCCCCCC(=O)NO)nc2ccc(N(CCCl)CCCl)cc21 was tested on Histone deacetylase 5 (Homo sapiens); the reported IC50 is 107

----------
Molecular target: Histone deacetylase 1 (Homo sapiens)
Assay: Inhibition of human recombinant HDAC1 using fluorogenic peptide p53 (379 to 382 residues) RHKK(Ac) as substrate by fluorescence based analysis
reported-metric: IC50 (µM)
Use µM as the unit, but write only the number.

Lab note: CC[C@]1(O)C(=O)OCc2c1cc1n(c2=O)Cc2c-1nc1ccc(O)cc1c2/C=N/OCCCCCC(=O)NO gave IC50 of 5.26

----------
Target: Tubulin
Assay: Inhibition of tubulin polymerization (unknown origin)
Answer each item with its documented pIC50.
Please express pIC50 as -log10 of the molar concentration.

Lab note: CCOC(=O)Nc1nc2ccc(-c3cc(Cc4n[nH]c(=O)c5ccccc45)ccc3F)cc2[nH]1 gave pIC50 of 6.00

Lab note: Cc1ccc(Cn2cc(CSC(=S)N3CCN(C(=O)OC(C)(C)C)CC3)nn2)cc1 gave pIC50 of 5.90

Lab note: COc1ccc(-c2cccc(-c3cc(OC)c(OC)c(OC)c3)n2)cc1C(=O)NO gave pIC50 of 5.62

----------
Biological target: Protein deacetylase HDAC6 (Homo sapiens)
Sequence (Q9UBN7 whole entry): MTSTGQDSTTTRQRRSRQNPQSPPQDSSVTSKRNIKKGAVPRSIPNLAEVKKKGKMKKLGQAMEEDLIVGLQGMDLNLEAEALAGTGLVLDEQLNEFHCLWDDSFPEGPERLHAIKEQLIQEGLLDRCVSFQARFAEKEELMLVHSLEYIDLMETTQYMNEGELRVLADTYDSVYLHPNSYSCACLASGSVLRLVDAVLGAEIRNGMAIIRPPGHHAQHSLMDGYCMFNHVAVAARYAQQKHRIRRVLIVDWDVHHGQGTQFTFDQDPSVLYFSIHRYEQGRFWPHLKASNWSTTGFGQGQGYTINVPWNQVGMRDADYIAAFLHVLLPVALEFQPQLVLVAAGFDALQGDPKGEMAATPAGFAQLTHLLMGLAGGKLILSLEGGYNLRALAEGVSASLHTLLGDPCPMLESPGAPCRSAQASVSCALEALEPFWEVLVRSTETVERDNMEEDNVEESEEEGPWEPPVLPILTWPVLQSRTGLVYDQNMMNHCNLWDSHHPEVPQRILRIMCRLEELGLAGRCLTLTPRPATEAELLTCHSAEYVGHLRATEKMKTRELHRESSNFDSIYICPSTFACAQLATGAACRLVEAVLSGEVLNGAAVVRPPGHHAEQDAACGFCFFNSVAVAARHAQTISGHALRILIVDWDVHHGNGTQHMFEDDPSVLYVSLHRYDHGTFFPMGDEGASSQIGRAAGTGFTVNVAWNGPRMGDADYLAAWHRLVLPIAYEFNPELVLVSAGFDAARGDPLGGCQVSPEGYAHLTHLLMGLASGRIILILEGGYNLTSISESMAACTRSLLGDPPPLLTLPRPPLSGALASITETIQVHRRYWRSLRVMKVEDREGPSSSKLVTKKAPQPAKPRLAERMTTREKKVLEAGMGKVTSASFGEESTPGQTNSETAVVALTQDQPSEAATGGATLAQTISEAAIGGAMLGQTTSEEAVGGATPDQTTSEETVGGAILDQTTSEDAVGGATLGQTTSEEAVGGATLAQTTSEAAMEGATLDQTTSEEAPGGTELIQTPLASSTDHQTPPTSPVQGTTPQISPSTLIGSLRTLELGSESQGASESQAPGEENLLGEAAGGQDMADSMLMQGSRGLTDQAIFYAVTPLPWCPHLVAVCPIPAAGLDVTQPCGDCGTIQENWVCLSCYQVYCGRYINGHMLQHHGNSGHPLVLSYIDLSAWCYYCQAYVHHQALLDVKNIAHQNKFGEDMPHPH
Test: Inhibition of human recombinant HDAC6 using fluorogenic peptide p53 (379 to 382 residues) RHKK(Ac) as substrate by fluorescence based analysis
reported-metric: pIC50
Please express pIC50 as -log10 of the molar concentration.

Lab note: CC[C@]1(O)C(=O)OCc2c1cc1n(c2=O)Cc2c-1nc1ccc(O)cc1c2/C=N/OCCCCCC(=O)NO gave pIC50 of 5.81

The reported measurements were obtained from ChEMBL document CHEMBL6109052.
